Some binders, each annotated with its measured EC50, CD112R/CD112 reporter.
assayed_target: T1, human CD112R on Jurkat CD112R effector cells (human, UniProt Q6DKI7 1-326)
T1 sequence (looked up): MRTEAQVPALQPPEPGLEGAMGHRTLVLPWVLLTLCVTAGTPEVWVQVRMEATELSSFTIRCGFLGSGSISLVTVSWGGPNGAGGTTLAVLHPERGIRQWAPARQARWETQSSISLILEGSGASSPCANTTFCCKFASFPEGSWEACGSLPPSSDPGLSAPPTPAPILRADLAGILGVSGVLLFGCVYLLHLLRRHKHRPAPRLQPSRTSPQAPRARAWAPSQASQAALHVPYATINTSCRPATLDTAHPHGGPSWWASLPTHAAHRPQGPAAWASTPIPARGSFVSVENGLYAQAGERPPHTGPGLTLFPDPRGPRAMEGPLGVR
assay: cell-based or functional assay
experimental_endpoint: EC50, CD112R/CD112 reporter (µg/mL)

{"binder": "Chi-55 (antibody, V domains shown, chimeric) VH: DVKLVESGGGLVKLGGSLKLSCAASGFTFSSYHMSWIRQTPEKRLELVAAINSNGINTYYLDTVKGRFTISRDNAKNTLYLQMSSLKSEDTALYYCARHEDYYGFAMDYWGQGTSVTVSS VL: SIVMTQTPKFLLVSAGDRVTITCKASQSVTNDVAWYQQKPGQSPKLLMYYVSNHYTGVPDRFIGSGYGTDFTFTISTVQAEDLAVYFCQQAYRSPWTFGGGTKLEIK", "measured": 0.0131}
{"binder": "Chi-47 (antibody, V domains shown, chimeric) VH: DVKLVESGGGLVKLGGSLKLSCAASGFTFSSYHMSWVRQTPEKRLELVAAINSNVISTYYLDTVKGRFTISRDNAKNTLYLQMSSLKSEDTALYYCARHEDYYGFAMDYWGQGTSVTVSS VL: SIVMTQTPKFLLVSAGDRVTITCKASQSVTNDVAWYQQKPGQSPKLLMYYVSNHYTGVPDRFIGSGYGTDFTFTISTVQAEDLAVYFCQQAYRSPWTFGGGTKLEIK", "measured": 0.014}
{"binder": "Chi-45 (antibody, V domains shown, chimeric) VH: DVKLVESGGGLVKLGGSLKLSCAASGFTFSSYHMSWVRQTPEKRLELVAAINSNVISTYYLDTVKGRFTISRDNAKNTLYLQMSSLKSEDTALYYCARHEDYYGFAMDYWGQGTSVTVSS VL: SIVMTQTPKFLLVSAGDRVTITCKASQSVSNDVAWYQEKPGQSPKLLMYYVSHRFTGVPDRFTGSGYGTDFTFTINTVQAEDLAVYFCHQAYRSPWTFGGGTKLEIK", "measured": 0.0119}
